- ASSAY SYSTEM: DNA dC->dU-editing enzyme APOBEC-3G (Homo sapiens);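 note: Dose-response counterscreen measuring inhibition of APOBEC3G DNA deaminase activity, run while confirming APOBEC3A inhibitors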
- Sequence (Q9HC16 whole entry): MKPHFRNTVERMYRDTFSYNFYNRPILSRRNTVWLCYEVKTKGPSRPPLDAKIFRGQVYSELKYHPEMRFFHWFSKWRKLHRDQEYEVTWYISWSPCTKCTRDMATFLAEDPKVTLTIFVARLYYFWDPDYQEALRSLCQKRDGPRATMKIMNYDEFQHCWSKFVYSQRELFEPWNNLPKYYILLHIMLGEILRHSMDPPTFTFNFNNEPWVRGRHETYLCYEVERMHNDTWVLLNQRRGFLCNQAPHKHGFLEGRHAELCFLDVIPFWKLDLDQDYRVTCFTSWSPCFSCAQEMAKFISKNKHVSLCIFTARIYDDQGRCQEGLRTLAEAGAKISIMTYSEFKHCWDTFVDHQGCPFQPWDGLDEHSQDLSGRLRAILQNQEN
- Type: functional
The source made the active and inactive calls.
ENDPOINT LABEL: IC50

INSERT INTO results (compound, measured_result) VALUES
  ('O=C(COC(=O)c1cc2c(s1)CCC2)Nc1ccc(F)cc1', '34.6 µM (active)'),
  ('CC(C)[N+](C)(C)CC(O)CN(c1ccccc1)c1ccccc1 (centres undefined)', '2.65 µM (active)'),
  ('Nc1nc2c(s1)CCCCCCCCCC2', '4.49 µM (active)'),
  ('CCN1C(NCCc2c[nH]c3ccccc23)=N[C@@H](c2ccccc2)[C@H](C(=O)OC)[C@H]1C', '8.65 µM (active)');

----------
- ASSAY SYSTEM: Heat shock factor protein 1 (Mus musculus)
- Sequence (P38532 whole entry): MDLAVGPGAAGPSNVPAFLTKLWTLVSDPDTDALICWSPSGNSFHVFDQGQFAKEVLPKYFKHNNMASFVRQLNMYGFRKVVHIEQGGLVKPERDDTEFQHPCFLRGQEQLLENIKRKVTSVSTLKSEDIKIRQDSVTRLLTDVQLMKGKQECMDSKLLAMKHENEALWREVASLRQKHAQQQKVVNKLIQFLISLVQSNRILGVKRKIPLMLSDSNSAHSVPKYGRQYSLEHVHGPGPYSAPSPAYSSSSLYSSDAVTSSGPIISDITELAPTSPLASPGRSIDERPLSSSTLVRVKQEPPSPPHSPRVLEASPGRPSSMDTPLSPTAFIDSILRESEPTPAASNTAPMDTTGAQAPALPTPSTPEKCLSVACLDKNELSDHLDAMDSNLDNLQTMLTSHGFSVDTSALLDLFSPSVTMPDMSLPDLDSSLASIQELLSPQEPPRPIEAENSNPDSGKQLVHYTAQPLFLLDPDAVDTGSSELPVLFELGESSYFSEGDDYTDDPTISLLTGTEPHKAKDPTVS
- ASSAY EXPLANATION: inhibition of MG132-induced HSE-luciferase signal, confirmation, cell-based, NIH3T3, luminescence, dose retest (AID 2382);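 note: NIH3T3 fibroblasts with HSF1-driven luciferase reporter stressed by proteasome inhibitor MG132; luminescence from HSF1-driven luciferase expression after 8 hours of MG132 stress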
- Type: functional
Active and inactive are the calls of the source.
ENDPOINT LABEL: EC50

INSERT INTO results (molecule, assay_system, endpoint_label, measured_result) VALUES
  ('COc1ccc(-c2nsc3c(N4CCCCC4C)ncnc23)cc1 (stereo not drawn)', 'Heat shock factor protein 1 (Mus musculus)', 'EC50', '< 0.16 µM (active)'),
  ('COc1ccccc1CN(C)C(=O)C1COc2ccccc2O1 (stereo not drawn)', 'Heat shock factor protein 1 (Mus musculus)', 'EC50', '> 195 µM (not active)'),
  ('NC(=O)c1nsc(C(=O)N(c2cccc(F)c2)C(C(=O)NC2CCCC2)c2ccco2)c1N (stereo not drawn)', 'Heat shock factor protein 1 (Mus musculus)', 'EC50', '> 195 µM (not active)'),
  ('CCCCCCN1CC(=O)N2[C@@H](Cc3c([nH]c4ccccc34)C2(C)C)C1=O', 'Heat shock factor protein 1 (Mus musculus)', 'EC50', '> 195 µM (not active)'),
  ('COc1ccc2nc3c(O)n(CCCN4CCOCC4)cnc-3c2c1', 'Heat shock factor protein 1 (Mus musculus)', 'EC50', '> 195 µM (not active)'),
  ('Cc1ccc(N2CN=c3s/c(=C\c4ccccn4)c(=O)n3C2)cc1', 'Heat shock factor protein 1 (Mus musculus)', 'EC50', '> 195 µM (not active)'),
  ('CCn1c(C)nc2cc(C(=O)NNC(=S)Nc3ccccc3)ccc21', 'Heat shock factor protein 1 (Mus musculus)', 'EC50', '0.192 µM (active)'),
  ('CCc1ccc(NC(=O)CSc2ccc(-c3cccnc3)nn2)cc1', 'Heat shock factor protein 1 (Mus musculus)', 'EC50', '> 195 µM (not active)'),
  ('COc1ccc(/C=C/C(=O)Oc2ccc(/C=N/NC(=O)COc3c(C)cccc3C)cc2)cc1', 'Heat shock factor protein 1 (Mus musculus)', 'EC50', '> 195 µM (not active)'),
  ('CCN(CC)C(=O)C1CCCN(c2ccc([N+](=O)[O-])cc2/C=N/NC(=O)c2ccc([N+](=O)[O-])cc2)C1 (stereo not drawn)', 'Heat shock factor protein 1 (Mus musculus)', 'EC50', '> 195 µM (not active)'),
  ('O=C(c1ccco1)N1CCN(S(=O)(=O)/C=C/c2ccccc2)CC1', 'Heat shock factor protein 1 (Mus musculus)', 'EC50', '> 195 µM (not active)'),
  ('O=C(Nc1cccnc1)c1noc2c1CCCCC2', 'Heat shock factor protein 1 (Mus musculus)', 'EC50', '0.288 µM (active)'),
  ('COc1ccc(NC(=O)Cn2c(=O)n(Cc3ccco3)c(=O)c3ccccc32)cc1', 'Heat shock factor protein 1 (Mus musculus)', 'EC50', '> 195 µM (not active)'),
  ('Cc1cc([N+](=O)[O-])nn1CC(=O)NCc1nc2ccccc2[nH]1', 'Heat shock factor protein 1 (Mus musculus)', 'EC50', '> 195 µM (not active)'),
  ('Cc1ccc(C(=O)Nc2cnc3ccccc3c2)cc1', 'Heat shock factor protein 1 (Mus musculus)', 'EC50', '4.76 µM (active)'),
  ('O=C(COC(=O)c1cnccn1)Nc1ccc(Cl)cn1', 'Heat shock factor protein 1 (Mus musculus)', 'EC50', '> 195 µM (not active)'),
  ('COc1ccccc1NC(=O)C1CCN(C(=O)C2CC(=O)N(c3ccc(C)cc3)C2)CC1 (stereo not drawn)', 'Heat shock factor protein 1 (Mus musculus)', 'EC50', '> 195 µM (not active)'),
  ('N#CC1=C(N)N(c2ccc(Oc3ccccc3)cc2)C(=O)C1', 'Heat shock factor protein 1 (Mus musculus)', 'EC50', '> 195 µM (not active)'),
  ('Cc1ccc(C(=O)Nc2ccccc2C(=O)O)cc1S(=O)(=O)NCc1ccccc1', 'Heat shock factor protein 1 (Mus musculus)', 'EC50', '> 195 µM (not active)'),
  ('O=S(=O)(NCc1ccc(C(F)(F)F)cc1)c1ccc(-n2cnnn2)cc1', 'Heat shock factor protein 1 (Mus musculus)', 'EC50', '> 195 µM (not active)'),
  ('CCCOc1ccc(/C=N/NC(=S)Nc2ccccc2[N+](=O)[O-])c(O)c1', 'Heat shock factor protein 1 (Mus musculus)', 'EC50', '11 µM (active)'),
  ('COCCN(C(=O)COC(=O)/C=C/c1ccc(C(F)(F)F)cc1)c1c(N)n(Cc2ccccc2)c(=O)[nH]c1=O', 'Heat shock factor protein 1 (Mus musculus)', 'EC50', '> 195 µM (not active)'),
  ('CC(=O)Nc1ccc(OS(=O)(=O)c2ccccc2C)cc1', 'Heat shock factor protein 1 (Mus musculus)', 'EC50', '> 195 µM (not active)');

----------
- System: Streptococcus
- ASSAY EXPLANATION: Group A Streptococcus viability loss, dose response, counter-screen for streptokinase expression inhibitor project, luminescence, BacTiterGlo (AID 1915);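 note: potency for reduction of bacterial viability or growth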
- Type: functional, organism-based
Calls of active or inactive are those of the source.
# EC50 annotations
ENDPOINT LABEL: EC50

INSERT INTO measurements (compound, assay_system, endpoint_label, measured_result) VALUES
  ('CC(C)(C)c1ccc(S(=O)(=O)N2CCC(c3nc4cc(Cl)ccc4[nH]3)CC2)cc1', 'Streptococcus', 'EC50', '45.8 µM (active)'),
  ('Cc1cccc(Cc2cnc(N3C(=N)SC(C)C3=O)s2)c1 (centres undefined)', 'Streptococcus', 'EC50', '7.82 µM (active)'),
  ('O=C(COc1ccc(Cl)cc1Cl)NNC(=S)NC(=O)c1ccco1', 'Streptococcus', 'EC50', '1.57 µM (active)'),
  ('C#CCOCCOCCOCCNc1nc(N2CCN(C(=O)CCCCCCCCCCNC(=O)[C@H](CCCCN)n3cc(C[C@@H](C)CC)nn3)CC2)nc(N2CCN(C(=O)CCCCCCCCCCNC(=O)[C@H](CCCCN)n3cc(C[C@@H](C)CC)nn3)CC2)n1', 'Streptococcus', 'EC50', '> 150 µM (not active)');

----------
- ASSAY SYSTEM: Cytochrome P450 2D6 (Homo sapiens);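 note: CYP2D6 member of a cytochrome P450 panel assay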
- Sequence (P10635 whole entry): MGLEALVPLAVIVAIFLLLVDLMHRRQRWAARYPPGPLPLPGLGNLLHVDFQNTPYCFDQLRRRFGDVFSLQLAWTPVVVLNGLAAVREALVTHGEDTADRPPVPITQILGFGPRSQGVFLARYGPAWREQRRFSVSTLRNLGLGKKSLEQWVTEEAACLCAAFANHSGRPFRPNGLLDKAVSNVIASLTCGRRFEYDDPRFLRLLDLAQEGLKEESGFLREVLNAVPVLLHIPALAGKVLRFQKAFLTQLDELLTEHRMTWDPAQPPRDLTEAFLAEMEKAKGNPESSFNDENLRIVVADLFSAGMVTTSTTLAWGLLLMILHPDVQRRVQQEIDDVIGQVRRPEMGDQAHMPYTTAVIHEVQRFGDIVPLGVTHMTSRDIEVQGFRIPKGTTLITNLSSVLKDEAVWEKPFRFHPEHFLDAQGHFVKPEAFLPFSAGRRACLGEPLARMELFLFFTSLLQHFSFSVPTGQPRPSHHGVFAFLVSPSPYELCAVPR
ENDPOINT LABEL: AC50

INSERT INTO results (compound, endpoint_label, measured_result) VALUES
  ('NC[C@@H]1O[C@H](c2ccccc2)Cc2c1ccc(O)c2O', 'AC50', '31.6 µM (inconclusive)'),
  ('CN1CCN(C(c2ccccc2)c2ccccc2)CC1 [CYCLIZINE]', 'AC50', '7.94 µM (inconclusive)'),
  ('COc1cccc(C(=O)Nc2nc3c(s2)CN(C)CC3)c1', 'AC50', '25.1 µM (inconclusive)'),
  ('CCCC(=O)Nc1ccc(C(=O)/C=C/c2ccc(SC)cc2)cc1', 'AC50', '7.94 µM (inconclusive)'),
  ('CCN1C(=O)C(CC(=O)Nc2ccc(OC)cc2)N(Cc2cccs2)C1=S (configuration not stated)', 'AC50', '14.1 µM (inconclusive)'),
  ('O=C1c2ccccc2C(=O)N1Cc1cc(-c2ccccc2Cl)no1', 'AC50', '3.16 µM (inconclusive)'),
  ('O=Nc1c(O)n(Cc2cccc(Cl)c2)c2ccccc12', 'AC50', '22.4 µM (inconclusive)'),
  ('COc1ccccc1OCCCCCc1c(C)n[nH]c1C', 'AC50', '11.2 µM (inconclusive)'),
  ('CCOc1ccc(-n2c(SCC(=O)Nc3ccc4c(c3)OCCO4)nc3c(c2=O)SCC3)cc1', 'AC50', '8.91 µM (inconclusive)'),
  ('CC1(c2ccccc2)NC(=O)N(CC(=O)NCCC2=CCCCC2)C1=O (configuration not stated)', 'AC50', '22.4 µM (inconclusive)'),
  ('Cc1ccc([N+](=O)[O-])cc1NC(=S)NC(=O)CC(C)(C)C', 'AC50', '12.6 µM (inconclusive)'),
  ('CCCCCCCCC(=O)N/N=C/c1cccc(Br)c1', 'AC50', '7.08 µM (inconclusive)'),
  ('CN(C)c1ncnc2ccc(-c3cccnc3)cc12', 'AC50', '39.8 µM (inconclusive)'),
  ('Cc1cccc(CNc2ccnc(-c3ccccc3C(F)(F)F)n2)c1', 'AC50', '25.1 µM (inconclusive)'),
  ('Cc1ccc(/C=C/c2nnc(-c3cccs3)o2)cc1', 'AC50', '25.1 µM (inconclusive)'),
  ('Cc1nc2cnc(N3CCN(C)CC3)nc2n(Cc2cccs2)c1=O', 'AC50', '15.8 µM (inconclusive)'),
  ('Nc1nc(CSc2nnnn2-c2ccc(Cl)cc2)nc(N2CCOCC2)n1', 'AC50', '2.51 µM (inconclusive)'),
  ('O=c1c(-c2cccc(Cl)c2)nc2cncnc2n1Cc1ccccc1', 'AC50', '39.8 µM (inconclusive)'),
  ('COc1ccc(Cl)cc1NC(=O)CN1C(=O)CSC1=O', 'AC50', '5.62 µM (inconclusive)'),
  ('CCN(CC)CC[n+]1ccc2c(C)c3[nH]c4ccccc4c3c(C)c2c1', 'AC50', '3.16 µM (inconclusive)'),
  ('CCOc1c2ccc(C(=O)NCc3ccc(OC(F)(F)F)cc3)cc2nn1C', 'AC50', '3.16 µM (inconclusive)'),
  ('O=C(CN(CC1CCCO1)C(=O)CNS(=O)(=O)c1ccc(Cl)cc1)NCCc1ccccc1 (configuration not stated)', 'AC50', '39.8 µM (inconclusive)');
